System: MDA-MB-453
procedure.text: drug sensitivity score (DSS), single agent (DSS (weighted AUC score)); higher = more sensitive (stronger viability decrease); extreme values may be limits of the assay
experimental.setup: BLU9931 0 nM; 72 h
drug sensitivity score reference

Illustrative cases are given below, each with its answer.
compound	drug sensitivity score
CC[C@H](Nc1ncnc2[nH]cnc12)c1nc2cccc(F)c2c(=O)n1-c1ccccc1 [Idelalisib]	1.7
O=C(CCCCCCC(=O)Nc1ccccc1)NO [Vorinostat]	16.4
N#Cc1ccc(C(c2ccc(C#N)cc2)n2cncn2)cc1 [Letrozole]	0

Record request: drug sensitivity score value, item Cc1ncc(-c2ccnc(Nc3ccc(S(C)(=O)=O)cc3)n2)n1C(C)C [AZD-5438]
6.1

Consider next the compound Cn1cc(C[C@@H](N)C(=O)O)c2ccccc21 [1-methyl-D-tryptophan] in the same way.
0.2

Consider next the compound C[C@@H]1CN(C(=O)c2ccc(NC(=O)c3cc(O[C@H](C)c4c(Cl)ccc(F)c4Cl)c(N)nn3)cc2)C[C@H](C)N1 [Ensartinib] in the same way.
0

Consider next the compound CC(C)(C#N)c1cc(Cn2cncn2)cc(C(C)(C)C#N)c1 [Anastrozole] in the same way.
0

Consider next the compound O=C(c1ccc(OCCN2CCCCC2)cc1)c1c(-c2ccc(O)cc2)sc2cc(O)ccc12 [Raloxifene] in the same way.
2.4

Consider next the compound Cn1ncnc1[C@H]1c2n[nH]c(=O)c3cc(F)cc(c23)N[C@@H]1c1ccc(F)cc1 [Talazoparib] in the same way.
1.7

Consider next the compound CCCCCCCCCCCCCCCCCCOP(=O)([O-])OC1CC[N+](C)(C)CC1 [Perifosine] in the same way.
0

Consider next the compound CO[C@H](C(=O)[C@@H](O)[C@@H](C)O)[C@@H]1Cc2cc3cc(O[C@H]4C[C@@H](O[C@@H]5C[C@@H](O)[C@H](O)[C@@H](C)O5)[C@H](O)[C@@H](C)O4)c(C)c(O)c3c(O)c2C(=O)[C@H]1O[C@H]1C[C@@H](O[C@@H]2C[C@@H](O)[C@@H](O[C@@H]3C[C@](C)(O)[C@H](O)[C@@H](C)O3)[C@@H](C)O2)[C@H](O)[C@@H](C)O1 [Plicamycin] in the same way.
15.7

Consider next the compound NS(=O)(=O)NCCNc1nonc1/C(=N/O)Nc1ccc(F)c(Br)c1 [Epacadostat] in the same way.
0

Consider next the compound c1cc(CN2CCCNCCNCCCNCC2)ccc1CN1CCCNCCNCCCNCC1 [Plerixafor] in the same way.
0

Consider next the compound COc1ccc(C[C@H](NC(=O)[C@H](C)NC(=O)CN2CCOCC2)C(=O)N[C@@H](Cc2ccccc2)C(=O)C2(C)CO2)cc1 (stereo in doubt) [ONX-0914] in the same way.
14.7

Consider next the compound CCC1(c2ccc(N)cc2)CCC(=O)NC1=O (stereo not given) [Aminoglutethimide] in the same way.
0

----------
Tested on: MDA-MB-453
procedure.text: drug sensitivity score (DSS), single agent (DSS (weighted AUC score)); higher = more sensitive (stronger viability decrease); extreme values may be limits of the assay
experimental.setup: BLU9931 0 nM; 72 h
drug sensitivity score reference

compound	tested.on	drug sensitivity score
CCCN(CCC)C(=O)C1=Cc2ccc(-c3ccc(C(=O)N4CCCC4)cc3)cc2N=C(N)C1 [Motolimod]	MDA-MB-453	0.1
CCS(=O)(=O)N1CC(CC#N)(n2cc(-c3ncnc4[nH]ccc34)cn2)C1 [Baricitinib]	MDA-MB-453	0
CNC(=O)c1ccccc1Nc1nc(Nc2ccc3c(c2OC)CCC[C@H](N2CCN(CCO)CC2)C3)ncc1Cl	MDA-MB-453	6.7
COc1ccc(-c2ccc3c(N4CCOC[C@@H]4C)nc(N4CCOC[C@@H]4C)nc3n2)cc1CO [AZD8055]	MDA-MB-453	24.3
COc1cc2c(NC3CCN(C(C)C)CC3)nc(C3CCCCC3)nc2cc1OCCCN1CCCC1 [UNC0638]	MDA-MB-453	0

Please look at the following compound next.
Record request: drug sensitivity score value, item COc1cc(N2CCC(N3CCN(C)CC3)CC2)ccc1Nc1ncnc(Nc2ccccc2S(=O)(=O)C(C)C)n1 [ASP3026]
0.8
